The measured values listed here are drawn from patent US20130123271A1.

Biological target: Src/Lyn (h) (Homo sapiens, UniProt P12931)
Sequence (P12931 whole entry): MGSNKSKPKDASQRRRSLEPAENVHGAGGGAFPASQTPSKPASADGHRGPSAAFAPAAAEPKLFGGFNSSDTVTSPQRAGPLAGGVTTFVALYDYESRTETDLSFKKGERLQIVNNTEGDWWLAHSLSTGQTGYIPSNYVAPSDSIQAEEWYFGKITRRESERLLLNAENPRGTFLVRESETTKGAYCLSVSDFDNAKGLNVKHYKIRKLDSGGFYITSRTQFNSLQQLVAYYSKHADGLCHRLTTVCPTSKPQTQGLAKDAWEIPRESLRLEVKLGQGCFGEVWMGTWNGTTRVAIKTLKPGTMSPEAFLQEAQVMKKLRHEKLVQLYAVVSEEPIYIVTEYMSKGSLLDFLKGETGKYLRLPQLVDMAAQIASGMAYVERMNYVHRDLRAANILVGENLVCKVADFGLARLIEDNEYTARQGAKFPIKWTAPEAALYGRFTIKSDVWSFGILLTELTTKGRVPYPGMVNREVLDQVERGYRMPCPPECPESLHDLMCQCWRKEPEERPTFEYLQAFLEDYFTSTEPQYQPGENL
Assay: In vitro potency Src/Lyn (h), Table 2
Assay type: biochemical
test_readout: IC50 (nM)
Return type: number; implicit unit nM.

>  <compound>
OCc1cc(Nc2ncc3cc(-c4cc(O)ccc4Cl)ccc3n2)ccn1 [Compound 43]

>  <IC50 / nM>
0.7

$$$$
>  <compound>
OCc1cc(Nc2nc3ccc(-c4cc(O)ccc4Cl)cn3n2)ccn1 [compound 13]

>  <IC50 / nM>
27

$$$$
>  <compound>
OCCn1cnc2cc(Nc3ncc4cc(-c5cc(O)ccc5Cl)ccc4n3)ccc21 [Compound 45]

>  <IC50 / nM>
1

$$$$
>  <compound>
Cc1cc(Nc2ncc3cc(-c4cc(O)ccc4Cl)ccc3n2)cc(N2CCN(CCO)CC2)c1 [Compound 46]

>  <IC50 / nM>
0.8

$$$$

Return IC50 for the following compound: Cc1cc(Nc2nc3ccc(-c4cc(O)ccc4Cl)cn3n2)cc(N2CCN(CCO)CC2)c1 [Compound 28]
3

Return IC50 for the following compound: OCCN1CCN(c2ccc(Nc3nc4ccc(-c5cc(O)ccc5Cl)cn4n3)cn2)CC1 [compound 10]
14

Return IC50 for the following compound: Cc1nc(Nc2nc3ccc(-c4cc(O)ccc4Cl)cn3n2)cc(N2CCN(CCO)CC2)n1 [Compound 27]
83

Return IC50 for the following compound: Oc1ccc(Cl)c(-c2ccc3nc(Nc4ccc(OCCN5CCCC5)nc4)nn3c2)c1 [Compound 25]
23

Return IC50 for the following compound: OCc1cc(CO)cc(Nc2nc3ccc(-c4cc(O)ccc4Cl)cn3n2)c1 [compound 5]
5

====

Assay: Ussing chamber permeation study through rabbit cornea
Assay type: in vitro ADME
Details: 37° C., 0.5 cm2 rabbit cornea
Method: Ussing chambers were used for the permeation study each day of experiment. 3 mL of solution were placed in donor side of Ussing chambers and 3 mL of Ringer solution were in receiver side. Freshly removed rabbit corneal tissue were placed between the two half chambers. […] Rabbits were euthanized and the 6 corneas were removed and used immediately. […] The samples were analyzed immediately (less than 10 hours after collection). […]
The threshold is inclusive: Flux between 2 and 4 hours through 0.5 cm2 of rabbit cornea (μg/h/cm2) of exactly 10 μg/h/cm2 counts as t; values below receive f.

// known answers, use as guide
>  <compound_smiles>
OCc1cc(Nc2ncc3cc(-c4cc(O)ccc4Cl)ccc3n2)ccn1

>  <group>
f

$$$$
>  <compound_smiles>
Cc1cc(Nc2ncc3cc(-c4cc(O)ccc4Cl)ccc3n2)cc(N2CCN(CCO)CC2)c1

>  <group>
t

$$$$
>  <compound_smiles>
Cc1cc(Nc2nc3ccc(-c4cc(O)ccc4Cl)cn3n2)cc(N2CCN(CCO)CC2)c1

>  <group>
f

$$$$
>  <compound_smiles>
OCc1cc(CO)cc(Nc2nc3ccc(-c4cc(O)ccc4Cl)cn3n2)c1

>  <group>
t

$$$$
>  <compound_smiles>
Cc1nc(Nc2nc3ccc(-c4cc(O)ccc4Cl)cn3n2)cc(N2CCN(CCO)CC2)n1

>  <group>
t

$$$$

Could you please find out whether `OCc1cc(Nc2nc3ccc(-c4cc(O)ccc4Cl)cn3n2)ccn1` has Flux between 2 and 4 hours through 0.5 cm2 of rabbit cornea (μg/h/cm2) that meets 10 μg/h/cm2 or exceeds it?
t

Could you please find out whether `OCCN1CCN(c2ccc(Nc3nc4ccc(-c5cc(O)ccc5Cl)cn4n3)cn2)CC1` has Flux between 2 and 4 hours through 0.5 cm2 of rabbit cornea (μg/h/cm2) that meets 10 μg/h/cm2 or exceeds it?
t

Could you please find out whether `OCc1cc(CO)cc(Nc2ncc3cc(-c4cc(O)ccc4Cl)ccc3n2)c1` has Flux between 2 and 4 hours through 0.5 cm2 of rabbit cornea (μg/h/cm2) that meets 10 μg/h/cm2 or exceeds it?
t

Could you please find out whether `Oc1ccc(Cl)c(-c2ccc3nc(Nc4ccc(OCCN5CCCC5)nc4)nn3c2)c1` has Flux between 2 and 4 hours through 0.5 cm2 of rabbit cornea (μg/h/cm2) that meets 10 μg/h/cm2 or exceeds it?
t

Could you please find out whether `OCCn1cnc2cc(Nc3ncc4cc(-c5cc(O)ccc5Cl)ccc4n3)ccc21` has Flux between 2 and 4 hours through 0.5 cm2 of rabbit cornea (μg/h/cm2) that meets 10 μg/h/cm2 or exceeds it?
f
